test system: SW-620; test: Cytotoxicity against human SW620 cells assessed inhibition of cell growth incubated for 72 hrs by MTT assay; type: functional, cell-based; conditions: SW-620, 72 h
MEASURED_METRIC: IC50

- SMILES_STRING: "Oc1ccccc1-c1cc(/C=C/c2cccs2)nn1-c1ccccc1"
  TARGET_OR_SYSTEM: "SW-620"
  MEASURED_METRIC: "IC50"
  TEST_VALUE: "11.9 µM"
- SMILES_STRING: "Oc1ccc(Cl)cc1-c1cc(/C=C/c2ccccc2Cl)nn1-c1ccccc1"
  TARGET_OR_SYSTEM: "SW-620"
  MEASURED_METRIC: "IC50"
  TEST_VALUE: "9.5 µM"
- SMILES_STRING: "Oc1ccc(Cl)cc1-c1cc(/C=C/c2cccs2)nn1-c1ccccc1"
  TARGET_OR_SYSTEM: "SW-620"
  MEASURED_METRIC: "IC50"
  TEST_VALUE: "19 µM"
- SMILES_STRING: "Oc1ccccc1-c1cc(/C=C/c2ccc(Cl)s2)nn1-c1ccccc1"
  TARGET_OR_SYSTEM: "SW-620"
  MEASURED_METRIC: "IC50"
  TEST_VALUE: "16.3 µM"
- SMILES_STRING: "COc1cc(/C=C/c2cc(-c3cc(Cl)ccc3O)n(-c3ccccc3)n2)cc(OC)c1OC"
  TARGET_OR_SYSTEM: "SW-620"
  MEASURED_METRIC: "IC50"
  TEST_VALUE: "4.4 µM"
- SMILES_STRING: "COc1ccc(/C=C/c2cc(-c3cc(Cl)ccc3O)n(-c3ccccc3)n2)cc1OC"
  TARGET_OR_SYSTEM: "SW-620"
  MEASURED_METRIC: "IC50"
  TEST_VALUE: "16.1 µM"
- SMILES_STRING: "Oc1ccccc1-c1cc(/C=C/c2cccc(Cl)c2)nn1-c1ccccc1"
  TARGET_OR_SYSTEM: "SW-620"
  MEASURED_METRIC: "IC50"
  TEST_VALUE: "11.6 µM"
- SMILES_STRING: "Cc1ccc(/C=C/c2cc(-c3ccccc3O)n(-c3ccccc3)n2)s1"
  TARGET_OR_SYSTEM: "SW-620"
  MEASURED_METRIC: "IC50"
  TEST_VALUE: "16.2 µM"
- SMILES_STRING: "O=c1[nH]cc(F)c(=O)[nH]1"
  TARGET_OR_SYSTEM: "SW-620"
  MEASURED_METRIC: "IC50"
  TEST_VALUE: "32.5 µM"
- SMILES_STRING: "COc1cccc(/C=C/c2cc(-c3ccccc3O)n(-c3ccccc3)n2)c1"
  TARGET_OR_SYSTEM: "SW-620"
  MEASURED_METRIC: "IC50"
  TEST_VALUE: "22.1 µM"
- SMILES_STRING: "Oc1ccc(Cl)cc1-c1cc(/C=C/c2ccc(Cl)c(Cl)c2)nn1-c1ccccc1"
  TARGET_OR_SYSTEM: "SW-620"
  MEASURED_METRIC: "IC50"
  TEST_VALUE: "19.2 µM"
- SMILES_STRING: "COc1ccc(/C=C/c2cc(-c3ccccc3O)n(-c3ccccc3)n2)cc1"
  TARGET_OR_SYSTEM: "SW-620"
  MEASURED_METRIC: "IC50"
  TEST_VALUE: "7.9 µM"
- SMILES_STRING: "COc1ccc(/C=C/c2cc(-c3ccccc3O)n(-c3ccccc3)n2)cc1OC"
  TARGET_OR_SYSTEM: "SW-620"
  MEASURED_METRIC: "IC50"
  TEST_VALUE: "18.5 µM"
- SMILES_STRING: "Cc1ccc(/C=C/c2cc(-c3cc(Cl)ccc3O)n(-c3ccccc3)n2)s1"
  TARGET_OR_SYSTEM: "SW-620"
  MEASURED_METRIC: "IC50"
  TEST_VALUE: "23 µM"
- SMILES_STRING: "Oc1ccc(Cl)cc1-c1cc(/C=C/c2ccc(Cl)cc2)nn1-c1ccccc1"
  TARGET_OR_SYSTEM: "SW-620"
  MEASURED_METRIC: "IC50"
  TEST_VALUE: "16.6 µM"
- SMILES_STRING: "Oc1ccccc1-c1cc(/C=C/c2ccc(Cl)cc2)nn1-c1ccccc1"
  TARGET_OR_SYSTEM: "SW-620"
  MEASURED_METRIC: "IC50"
  TEST_VALUE: "16.5 µM"
- SMILES_STRING: "Oc1ccccc1-c1cc(/C=C/c2ccc(Cl)c(Cl)c2)nn1-c1ccccc1"
  TARGET_OR_SYSTEM: "SW-620"
  MEASURED_METRIC: "IC50"
  TEST_VALUE: "18.6 µM"
- SMILES_STRING: "Oc1ccccc1-c1cc(/C=C/c2ccccc2Cl)nn1-c1ccccc1"
  TARGET_OR_SYSTEM: "SW-620"
  MEASURED_METRIC: "IC50"
  TEST_VALUE: "15.7 µM"
- SMILES_STRING: "COc1cc(/C=C/c2cc(-c3ccccc3O)n(-c3ccccc3)n2)cc(OC)c1OC"
  TARGET_OR_SYSTEM: "SW-620"
  MEASURED_METRIC: "IC50"
  TEST_VALUE: "7.6 µM"
- SMILES_STRING: "O=[N+]([O-])c1cccc(/C=C/c2cc(-c3cc(Cl)ccc3O)n(-c3ccccc3)n2)c1"
  TARGET_OR_SYSTEM: "SW-620"
  MEASURED_METRIC: "IC50"
  TEST_VALUE: "10 µM"
- SMILES_STRING: "COc1ccc(/C=C/c2cc(-c3cc(Cl)ccc3O)n(-c3ccccc3)n2)cc1"
  TARGET_OR_SYSTEM: "SW-620"
  MEASURED_METRIC: "IC50"
  TEST_VALUE: "19.8 µM"
